Quick list: remaining at 1 h, 10 µM per entry.
- assay name: Peptide stability in simulated gastric fluid (SGF)
- Type: in vitro ADME
- assay conditions: pig, simulated gastric fluid (SGF) with porcine pepsin, 1 h, 37 °C, pH 1.2, porcine pepsin 3.2 g/L
*1 amine or outer side, *2 acyl side, *3 side chain or, on linkers, in order; H or OH if unused. Where a SMILES comes first, the peptide text is derived from it. Bridges are numbered along the chain shown (N, C = ends). [ ]: non-standard residue; d: D form. 2Nal = N[C@@H](Cc1ccc2ccccc2c1)C(=O)O; AEF = NCCOc1ccc(C[C@H](N)C(=O)O)cc1; X1 = O=C(Cc1ccc(CN[*:1])cc1)[*:2]; 3Pal = N[C@@H](Cc1cccnc1)C(=O)O; αMeL = CC(C)C[C@](C)(N)C(=O)O; Dab = NCC[C@H](N)C(=O)O; Sar = CNCC(=O)O
Supply the numeric figure in %, leaving out any unit text.

Past entries and their recorded results:
- molecule: "CC(C)C[C@]1(C)NC(=O)[C@H](Cc2ccc3ccccc3c2)NC(=O)[C@H](Cc2ccc(OCCN)cc2)NC(=O)[C@@H]2CCNC(=O)CC[C@H](NC(=O)[C@H](CO)NC(=O)Cc3ccc(cc3)CNC(=O)CC[C@@H](C(=O)N[C@@H](CCN)C(=O)N[C@@H](Cc3cccnc3)C(=O)N[C@H](Cc3c[nH]cn3)C(N)=O)NC1=O)C(=O)N[C@@H](Cc1c[nH]c3ccccc13)C(=O)N[C@@H](CCC(N)=O)C(=O)N2 [Compound 10] ([X1]SEWQ[Dab][AEF][2Nal][αMeL]E[Dab][3Pal][dH]-NH2; lactam 3-6, N-10)"
  remaining at 1 h, 10 µM, %: 97
- molecule: "CC(C)C[C@]1(C)NC(=O)[C@H](Cc2ccc3ccccc3c2)NC(=O)[C@H](Cc2ccc(OCCN)cc2)NC(=O)[C@@H]2CCNC(=O)CC[C@H](NC(=O)[C@H](CO)NC(=O)Cc3ccc(cc3)CNC(=O)CC[C@@H](C(=O)N[C@@H](CCN)C(=O)N[C@@](C)(Cc3cccnc3)C(N)=O)NC1=O)C(=O)N[C@@H](Cc1c[nH]c3ccccc13)C(=O)N[C@@H](CCC(N)=O)C(=O)N2"
  remaining at 1 h, 10 µM, %: 99
- molecule: "CNC(=O)[C@H](Cc1cccnc1)NC(=O)[C@H](COC)NC(=O)[C@@H]1CCC(=O)NCc2ccc(cc2)CC(=O)N[C@@H](CO)C(=O)N[C@H]2CCC(=O)NCC[C@H](NC(=O)[C@H](CCC(N)=O)NC(=O)[C@H](Cc3c[nH]c4ccccc34)NC2=O)C(=O)N[C@@H](Cc2ccc(OCCN)cc2)C(=O)N[C@@H](Cc2ccc3ccccc3c2)C(=O)N[C@@](C)(CC(C)C)C(=O)N1"
  remaining at 1 h, 10 µM, %: 97
- molecule: "CC(C)C[C@]1(C)NC(=O)[C@H](Cc2ccc3ccccc3c2)NC(=O)[C@H](Cc2ccc(OCCN)cc2)NC(=O)[C@@H]2CCNC(=O)CC[C@H](NC(=O)[C@H](CO)NC(=O)Cc3ccc(cc3)CNC(=O)CC[C@@H](C(=O)N[C@@H](CCN)C(=O)NCCc3cccnc3)NC1=O)C(=O)N[C@@H](Cc1c[nH]c3ccccc13)C(=O)N[C@@H](CCC(N)=O)C(=O)N2"
  remaining at 1 h, 10 µM, %: 77
- molecule: "CC(C)C[C@]1(C)NC(=O)[C@H](Cc2ccc3ccccc3c2)NC(=O)[C@H](Cc2ccc(OCCN)cc2)NC(=O)[C@@H]2CCNC(=O)CC[C@H](NC(=O)[C@H](CO)NC(=O)Cc3ccc(cc3)CNC(=O)CC[C@@H](C(=O)N[C@@H](CCN)C(=O)N[C@H](Cc3cccnc3)C(N)=O)NC1=O)C(=O)N[C@@H](Cc1c[nH]c3ccccc13)C(=O)N[C@@H](CCC(N)=O)C(=O)N2"
  remaining at 1 h, 10 µM, %: 99

input: I have this molecule here, CNC(=O)[C@H](Cc1cccnc1)NC(=O)[C@H](CCO)NC(=O)[C@@H]1CCC(=O)NCc2ccc(cc2)CC(=O)N[C@@H](CO)C(=O)N[C@H]2CCC(=O)NCC[C@H](NC(=O)[C@H](CCC(N)=O)NC(=O)[C@H](Cc3c[nH]c4ccccc34)NC2=O)C(=O)N[C@@H](Cc2ccc(OCCN)cc2)C(=O)N[C@@H](Cc2ccc3ccccc3c2)C(=O)N[C@@](C)(CC(C)C)C(=O)N1 , and I need its recorded remaining at 1 h, 10 µM.
output: 96

input: I have this molecule here, CCCC[C@H](NC(=O)[C@@H]1CCC(=O)NCc2ccc(cc2)CC(=O)N[C@@H](CO)C(=O)N[C@H]2CCC(=O)NCC[C@H](NC(=O)[C@H](CCC(N)=O)NC(=O)[C@H](Cc3c[nH]c4ccccc34)NC2=O)C(=O)N[C@@H](Cc2ccc(OCCN)cc2)C(=O)N[C@@H](Cc2ccc3ccccc3c2)C(=O)N[C@@](C)(CC(C)C)C(=O)N1)C(=O)N[C@@H](Cc1cccnc1)C(=O)NC , and I need its recorded remaining at 1 h, 10 µM.
output: 96

input: I have this molecule here, CNC(=O)[C@H](Cc1cccnc1)NC(=O)[C@H](CO)NC(=O)[C@@H]1CCC(=O)NCc2ccc(cc2)CC(=O)N[C@@H](C)C(=O)N[C@H]2CCC(=O)NCC[C@H](NC(=O)[C@H](CCC(N)=O)NC(=O)[C@H](Cc3c[nH]c4ccccc34)NC2=O)C(=O)N[C@@H](Cc2ccc(OCCN)cc2)C(=O)N[C@@H](Cc2ccc3ccccc3c2)C(=O)N[C@@](C)(CC(C)C)C(=O)N1 [Compound 40] ([X1]AEWQ[Dab][AEF][2Nal][αMeL]ES[3Pal]-NHMe; lactam 3-6, N-10) , and I need its recorded remaining at 1 h, 10 µM.
output: 89

input: I have this molecule here, CNC(=O)[C@H](Cc1cccnc1)NC(=O)[C@H](Cc1c[nH]cn1)NC(=O)[C@@H]1CCC(=O)NCc2ccc(cc2)CC(=O)N[C@@H](CO)C(=O)N[C@H]2CCC(=O)NCC[C@H](NC(=O)[C@H](CCC(N)=O)NC(=O)[C@H](Cc3c[nH]c4ccccc34)NC2=O)C(=O)N[C@@H](Cc2ccc(OCCN)cc2)C(=O)N[C@@H](Cc2ccc3ccccc3c2)C(=O)N[C@@](C)(CC(C)C)C(=O)N1 [Compound 34] ([X1]SEWQ[Dab][AEF][2Nal][αMeL]EH[3Pal]-NHMe; lactam 3-6, N-10) , and I need its recorded remaining at 1 h, 10 µM.
output: 96

input: I have this molecule here, CNC(=O)[C@H](Cc1cccnc1)NC(=O)[C@](C)(CO)NC(=O)[C@@H]1CCC(=O)NCc2ccc(cc2)CC(=O)N[C@@H](CO)C(=O)N[C@H]2CCC(=O)NCC[C@H](NC(=O)[C@H](CCC(N)=O)NC(=O)[C@H](Cc3c[nH]c4ccccc34)NC2=O)C(=O)N[C@@H](Cc2ccc(OCCN)cc2)C(=O)N[C@@H](Cc2ccc3ccccc3c2)C(=O)N[C@@](C)(CC(C)C)C(=O)N1 , and I need its recorded remaining at 1 h, 10 µM.
output: 99

input: I have this molecule here, CC(C)C[C@]1(C)NC(=O)[C@H](Cc2ccc3ccccc3c2)NC(=O)[C@H](Cc2ccc(OCCN)cc2)NC(=O)[C@@H]2CCNC(=O)CC[C@H](NC(=O)[C@H](CO)NC(=O)Cc3ccc(cc3)CNC(=O)CC[C@@H](C(=O)N[C@@H](CCN)C(=O)N[C@@H](Cc3cccnc3)C(=O)N(C)CC(N)=O)NC1=O)C(=O)N[C@@H](Cc1c[nH]c3ccccc13)C(=O)N[C@@H](CCC(N)=O)C(=O)N2 [Compound 9] ([X1]SEWQ[Dab][AEF][2Nal][αMeL]E[Dab][3Pal][Sar]-NH2; lactam 3-6, N-10) , and I need its recorded remaining at 1 h, 10 µM.
output: 96

----------
- test system: UniProt Q5VWK5
- assay name: biochemical
- Description: The compound binding affinity for IL-23R was estimated by the ability of compounds to displace a fluorophore-labelled reference compound from the human IL-23R. […] The plate was sealed with light impermeable plate seals, and incubated on an orbital shaker 400 rpm for 2 hours at room temperature. […] The BRET ratio was calculated as the fluorescence from the TAMRA/nanoluc bioluminescence. […]
*1 amine or outer side, *2 acyl side, *3 side chain or, on linkers, in order; H or OH if unused. Where a SMILES comes first, the peptide text is derived from it. Bridges are numbered along the chain shown (N, C = ends). [ ]: non-standard residue; d: D form. 2Nal = N[C@@H](Cc1ccc2ccccc2c1)C(=O)O; AEF = NCCOc1ccc(C[C@H](N)C(=O)O)cc1; X1 = O=C(Cc1ccc(CN[*:1])cc1)[*:2]; 3Pal = N[C@@H](Cc1cccnc1)C(=O)O; Cit = NC(=O)NCCC[C@H](N)C(=O)O; αMeL = CC(C)C[C@](C)(N)C(=O)O; CH2COCH2 = O=C(C[*:1])C[*:2]; NMeS = CN[C@@H](CO)C(=O)O; Dab = NCC[C@H](N)C(=O)O; βAla = NCCC(=O)O
Quick list: pIC50 per entry.
Convention used: pIC50 is expressed as -log10 of the molar concentration.

Past entries and their recorded results:
- compound: "CNC(=O)[C@H](Cc1cccnc1)NC(=O)[C@H](COC)NC(=O)[C@@H]1CCC(=O)NCc2ccc(cc2)CC(=O)N[C@@H](CO)C(=O)N[C@H]2CCC(=O)NCC[C@H](NC(=O)[C@H](CCC(N)=O)NC(=O)[C@H](Cc3c[nH]c4ccccc34)NC2=O)C(=O)N[C@@H](Cc2ccc(OCCN)cc2)C(=O)N[C@@H](Cc2ccc3ccccc3c2)C(=O)N[C@@](C)(CC(C)C)C(=O)N1"
  measurement label: "pIC50"
  reported: 10.89
- compound: "CNC(=O)[C@H](Cc1cccnc1)NC(=O)[C@H](CCN)NC(=O)[C@@H]1CCC(=O)NCc2ccc(cc2)CC(=O)N[C@@H](CO)C(=O)N[C@H]2CCC(=O)NCC[C@H](NC(=O)[C@H](CCCCNC(C)=O)NC(=O)[C@H](Cc3c[nH]c4ccccc34)NC2=O)C(=O)N[C@@H](Cc2ccc(OCCN)cc2)C(=O)N[C@@H](Cc2ccc3ccccc3c2)C(=O)N[C@@](C)(CC(C)C)C(=O)N1 [Compound 24] ([X1]SEWK(Ac)[Dab][AEF][2Nal][αMeL]E[Dab][3Pal]-NHMe; lactam 3-6, N-10)"
  measurement label: "pIC50"
  reported: 10.85
- compound: "CNC(=O)[C@H](Cc1cccnc1)NC(=O)[C@H](CCN)NC(=O)[C@@H]1CCC(=O)NCc2ccc(cc2)CC(=O)N(C)[C@@H](CO)C(=O)N[C@H]2CCC(=O)NCC[C@H](NC(=O)[C@H](CCC(N)=O)NC(=O)[C@H](Cc3c[nH]c4ccccc34)NC2=O)C(=O)N[C@@H](Cc2ccc(OCCN)cc2)C(=O)N[C@@H](Cc2ccc3ccccc3c2)C(=O)N[C@@](C)(CC(C)C)C(=O)N1 [Compound 18] ([X1][NMeS]EWQ[Dab][AEF][2Nal][αMeL]E[Dab][3Pal]-NHMe; lactam 3-6, N-10)"
  measurement label: "pIC50"
  reported: 10.82
- compound: "CNC(=O)[C@H](Cc1cccnc1)NC(=O)[C@H](CCN)NC(=O)[C@@H]1CCC(=O)NCc2ccc(cc2)CC(=O)N[C@@H](CO)C(=O)N[C@H]2CCC(=O)NCC[C@H](NC(=O)[C@H](CCCNC(N)=O)NC(=O)[C@H](Cc3c[nH]c4ccccc34)NC2=O)C(=O)N[C@@H](Cc2ccc(OCCN)cc2)C(=O)N[C@@H](Cc2ccc3ccccc3c2)C(=O)N[C@@](C)(CC(C)C)C(=O)N1 [Compound 26] ([X1]SEW[Cit][Dab][AEF][2Nal][αMeL]E[Dab][3Pal]-NHMe; lactam 3-6, N-10)"
  measurement label: "pIC50"
  reported: 10.82
- compound: "CNC(=O)[C@H](Cc1cccnc1)NC(=O)[C@H](CCC(N)=O)NC(=O)[C@@H]1CCC(=O)NCc2ccc(cc2)CC(=O)N[C@@H](CO)C(=O)N[C@H]2CCC(=O)NCC[C@H](NC(=O)[C@H](CCC(N)=O)NC(=O)[C@H](Cc3c[nH]c4ccccc34)NC2=O)C(=O)N[C@@H](Cc2ccc(OCCN)cc2)C(=O)N[C@@H](Cc2ccc3ccccc3c2)C(=O)N[C@@](C)(CC(C)C)C(=O)N1 [Compound 33] ([X1]SEWQ[Dab][AEF][2Nal][αMeL]EQ[3Pal]-NHMe; lactam 3-6, N-10)"
  measurement label: "pIC50"
  reported: 10.85
- compound: "CNC(=O)[C@H](Cc1cccnc1)NC(=O)[C@H](CCN)NC(=O)[C@@H]1CCC(=O)NCc2ccc(cc2)CC(=O)N[C@@H](C)C(=O)N[C@H]2CCC(=O)NCC[C@H](NC(=O)[C@H](CCC(N)=O)NC(=O)[C@H](Cc3c[nH]c4ccccc34)NC2=O)C(=O)N[C@@H](Cc2c[nH]c3ncccc23)C(=O)N[C@@H](Cc2ccc3ccccc3c2)C(=O)NC(C)(C)C(=O)N1"
  measurement label: "pIC50"
  reported: 10.32
- compound: "CC(C)C[C@]1(C)NC(=O)[C@H](Cc2ccc3ccccc3c2)NC(=O)[C@H](Cc2ccc(OCCN)cc2)NC(=O)[C@@H]2CSCC(=O)CSC[C@H](NC(=O)[C@H](CO)NC(=O)CCNC(=O)[C@H](Cc3cccnc3)NC(=O)CC[C@@H](C(=O)N[C@H](CCCNC(=N)N)C(N)=O)NC1=O)C(=O)N[C@@H](Cc1c[nH]c3ccccc13)C(=O)N[C@@H](CCC(N)=O)C(=O)N2 [Compound 2] ([3Pal][βAla]SCWQC[AEF][2Nal][αMeL]E[dR]-NH2; linker 4-7 via CH2COCH2; lactam N-11)"
  measurement label: "pIC50"
  reported: 8.54
- compound: "CC(C)C[C@]1(C)NC(=O)[C@H](Cc2ccc3ccccc3c2)NC(=O)[C@H](Cc2ccc(OCCN)cc2)NC(=O)[C@@H]2CCNC(=O)CC[C@H](NC(=O)[C@H](CO)NC(=O)Cc3ccc(cc3)CNC(=O)CC[C@@H](C(=O)NCC[C@H](N)C(=O)N[C@@](C)(Cc3cccnc3)C(N)=O)NC1=O)C(=O)N[C@@H](Cc1c[nH]c3ccccc13)C(=O)N[C@@H](CCC(N)=O)C(=O)N2"
  measurement label: "pIC50"
  reported: 9.35

As a next step, examine the compound that follows.
input: I have this compound here, CC(C)C[C@]1(C)NC(=O)[C@H](Cc2ccc3ccccc3c2)NC(=O)[C@H](Cc2ccc(OCCN)cc2)NC(=O)[C@@H]2CCNC(=O)CC[C@H](NC(=O)[C@H](CO)NC(=O)Cc3ccc(cc3)CNC(=O)CC[C@@H](C(=O)N[C@@H](CCN)C(=O)N[C@H](Cc3cccnc3)C(N)=O)NC1=O)C(=O)N[C@@H](Cc1c[nH]c3ccccc13)C(=O)N[C@@H](CCC(N)=O)C(=O)N2 , and I need its recorded pIC50.
output: 10.03
